Ref: ChEMBL document CHEMBL1201862

Test system: OVCAR-4
PROCEDURE SUMMARY: NCI tumour cell line growth inhibition, 48 h
Active and inactive are the calls of the source. Rule as the data show it: active = GI50 up to about 1.1 µM and inactive = higher.
READOUT: GI50

NCCC1([N+](=O)[O-])C=CN=CC1 (stereo not given); > 100 µM (inactive)
COc1ccc2c3c([nH]c2c1)[C@H]1C[C@H]2[C@H](C[C@@H](O)[C@H](OC)[C@H]2C(=O)O)CN1CC3; > 100 µM (inactive)
CN(CCNC(=O)c1c[nH]c2c1Cc1ccccc1-2)CCNC(=O)c1c[nH]c2c1Cc1ccccc1-2; 59.3 µM (inactive)
CC1(c2ccc(Cl)cc2)N=C(NCCO)c2ccccc21 (stereo not given); 67.9 µM (inactive)

response.value for c1cc2nnc1SCCSCCSCCSc1ccc(nn1)SCCSCCSCCS2 (field: GI50) = > 100 µM (inactive)

Quick note, GI50 for Cc1c2c(OCC(O)CN3CCN(c4ccccc4)CC3)nn(C)c(=O)c2c(C)n1-c1ccccc1 (stereo not given) landed at 30.3 µM (inactive)

Memo: COc1cc(NP(=O)(Oc2ccccc2)Oc2ccccc2)ccc1Nc1c2ccccc2nc2c1[nH]c1ccccc12 , reported GI50: 3.22 µM (inactive)

In plain terms, CNC(=S)N(C)C(=S)Nn1c(=O)c(C)nn(C)c1=S has a documented GI50 of > 100 µM (inactive)

According to the records, this compound OC(Cc1ccccc1)(Cc1ccccc1)c1ccccc1 displays GI50 of 16.9 µM (inactive)

// GI50 lookup, compound = COc1ccc2c(c1OC)C(=O)C2 , result: > 100 µM (inactive)

----------
System: NCI-H460
PROCEDURE SUMMARY: NCI tumour cell line growth inhibition, 48 h
Calls of active or inactive are those of the source. Cut-off read from the data, not from the text of the source: active = GI50 up to about 1.1 µM and inactive = higher.
# output must be one of active, inactive

In: Any idea what this test logged for c1cc2nnc1SCCSCCSCCSc1ccc(nn1)SCCSCCSCCS2 ?
Out: inactive

----------
Test system: RPMI-8226
PROCEDURE SUMMARY: NCI tumour cell line growth inhibition, 48 h
The source made the active and inactive calls. No stated cut-off is given here; in the data, active = GI50 up to about 1.1 µM and inactive = higher.
Outcome field: choose from active, inactive

Solved cases (5 shown):
O=c1ccc2ccccc2c2ccccc12; inactive
Oc1ccccc1/C=N/c1ccc(-c2nc3ccccc3s2)cc1; inactive
CC(C)/C=N\n1c(N)c(C#N)c(C#N)c1C(C)C; inactive
CN(C)CCNc1ccc2c(=O)n(CCN(C)C)c(=O)n3c4ccccc4c(=O)c1c23; active
c1csc(-c2ccsc2-c2ccsc2)c1; inactive

In: Record lookup: outcome of this test for O=C(OCc1ccccc1)C(Cc1ccc(OCc2ccccc2)cn1)NC(=O)C(F)(F)F (configuration not stated) ?
Out: inactive

In: What call does the record list for Cc1ccc(NC(=O)SCCC(=O)O)cc1 ?
Out: inactive

----------
# GI50 per record follows
Test system: CCRF-CEM
PROCEDURE SUMMARY: NCI tumour cell line growth inhibition, 48 h
Activity calls are given as the source filed them. Rule as the data show it: active = GI50 up to about 1.1 µM and inactive = higher.

Here's what some known entries look like.
O=c1c2ccccc2nc(-c2cccc(Cl)c2)n1NC1OC(CO)C(O)C(O)C1O (stereo not drawn); 73.3 µM (inactive)
CCc1c(O)cc(=O)oc1-c1ccc(OC)c(OC)c1; > 100 µM (inactive)
Cc1cccc(-c2cc(=S)c3cc(N4CCCC4)ccc3[nH]2)c1; > 100 µM (inactive)
COc1ccc(/C=C/c2cc(OC)c(O[Si](C)(C)C(C)(C)C)c(OC)c2)cc1; 58.7 µM (inactive)
O=C1C=CC[C@H](/C=C/C[C@@H](O)C[C@H](O)/C=C/c2ccccc2)O1; 3.74 µM (inactive)
O=C(Nc1cccc([N+](=O)[O-])c1)c1nnn(-c2cccc([N+](=O)[O-])c2)c1O; > 100 µM (inactive)
CN1CCOC1(C)CO (stereo not drawn); > 100 µM (inactive)
CC(=O)OCc1nc(C#N)c(N)o1; > 100 µM (inactive)
COC1/C=C/O[C@@]2(C)Oc3c(C)c(O)c4c(O)c(cc(O)c4c3C2=O)NC(=O)/C(C)=C\C=C\[C@H](C)C(O)[C@@H](C)[C@@H](O)[C@@H](C)[C@H](OC(C)=O)[C@@H]1C (stereo partly drawn); 2.06 µM (inactive)
Cc1ccc(NC(=O)SCCC(=O)O)cc1; > 100 µM (inactive)

get_value(item= COC[C@@H]1[C@H]2OC(C)(C)O[C@H]2C(=O)N1C(=O)c1ccc(OC)cc1 , readout=GI50) returns > 100 µM (inactive)

O=C1c2ccccc2-c2nc3ccc(O)cc3n21 yielded GI50 of > 100 µM (inactive)

What the record says about Cc1nc(-c2cc3c(ccc4ccccc43)oc2=O)cc2c1c(=O)oc1ccc3ccccc3c12 : GI50 is > 100 µM (inactive)

GET /value?item= O=C1N=C(c2ccccc2)OC1C(=O)c1ccccc1 (stereo not drawn) &field=GI50 returns > 100 µM (inactive)

Looking up NNC(=O)c1c(SCc2ccccc2)nc2c3ccccc3ccn12 , I found its GI50 recorded as 2.92 µM (inactive)

Per the record, CCOC(=O)C1(C/C=C\CBr)CCCCCCCCCCC1=O (stereo not drawn) has GI50 of 5.69 µM (inactive)

----------
Test system: PC-3
PROCEDURE SUMMARY: NCI tumour cell line growth inhibition, 48 h
The source made the active and inactive calls. Cut-off read from the data, not from the text of the source: active = GI50 up to about 1.1 µM and inactive = higher.
READOUT: GI50

COc1ccccc1CNCc1nc2ccccc2[nH]1; > 100 µM (inactive)

What the record says about N#Cc1ccc(Oc2nc3ccc(C(F)(F)F)cc3nc2-c2ccccc2)cc1 : GI50 is 14 µM (inactive)

Summary for this molecule, CCOC(=O)C(=[N+]=[N-])C(=O)CSC#N : GI50 is > 100 µM (inactive)

Input NCCC1CN(C(=O)OCc2ccccc2)c2ccccc21 (stereo unspecified) . Output GI50: 3.86 µM (inactive)

Field GI50 (entry O=C(Cc1ccccc1)c1ccc2[nH]c(=O)oc2c1 ) reads 41.3 µM (inactive)

Query COc1cccc(/C=C2/Sc3scc(-c4ccccc4)[n+]3C2=O)c1O yields GI50 of 32.1 µM (inactive)

Entry CCC1=C(c2ccc(OC)cc2)CC[C@]2(CCNC2=O)[C@@H]1C — recorded GI50 = 26.4 µM (inactive)

// GI50 lookup, molecule = COc1ccc2c(c1)CC[C@@H]1[C@@H]2CC[C@]2(C)/C(=N/OCCN3CCCC3)CC[C@@H]12 , result: 3.85 µM (inactive)

// field: GI50; key: COc1ccc(OC)c(C2CCc3nc4nc(N)nc(N)c4cc3C2)c1 (stereo unspecified) ; value = 3.56 µM (inactive)

----------
Test system: SNB-19
PROCEDURE SUMMARY: NCI tumour cell line growth inhibition, 48 h
Active and inactive are the calls of the source. Cut-off read from the data, not from the text of the source: active = GI50 up to about 1.1 µM and inactive = higher.
// classify into True = active, False = inactive

Worked examples, 2 compounds total:
COC1CC(C)(N)C(O)C(C)O1 (stereo not given); False
COc1ccccc1NS(=O)(=O)c1cc(C(C)(C)C)ccc1OCCOc1ccc(C(C)(C)C)cc1S(=O)(=O)Nc1ccccc1OC; False

In: Hi, do you know how CCOC(=O)[C@@]12C(C)=CC(=O)O[C@]1(C)C[C@H]2C#N came out in this test?
Out: False

In: Record lookup: outcome of this test for O=c1c2ccccc2nc(-c2cccc(Cl)c2)n1NC1OC(CO)C(O)C(O)C1O (stereo not given) ?
Out: False

In: How did this test come out for CCOC(=O)C(=[N+]=[N-])C(=O)CSC#N ?
Out: False

----------
System: SK-MEL-5
PROCEDURE SUMMARY: NCI tumour cell line growth inhibition, 48 h
Activity calls are given as the source filed them. Rule as the data show it: active = GI50 up to about 1.1 µM and inactive = higher.
READOUT: GI50

Example entries begin here.
Cn1/c(=N\N=C2\C=C3CCCCC3(C)CC2)sc2ccccc21 (stereo unspecified); > 100 µM (inactive)
CCC1CN(C(=O)c2ccccc2)C(Cc2c[nH]c3ccccc23)C(=O)C1CC(=O)OC (stereo unspecified); 72.8 µM (inactive)
Cc1nc2nnc(CCCCCCCCc3nnc4nc(C)[nH]n34)n2[nH]1; > 100 µM (inactive)
NC(CCCCNC(=O)C(Cc1ccccc1)NC(=O)OCc1ccccc1)C(=O)NC(CCCCNC(=O)C(Cc1ccccc1)NC(=O)OCc1ccccc1)C(=O)NC(CCCCNC(=O)C(Cc1ccccc1)NC(=O)OCc1ccccc1)C(=O)NC(CCCCNC(=O)C(Cc1ccccc1)NC(=O)OCc1ccccc1)C(=O)NC(CCCCNC(=O)C(Cc1ccccc1)NC(=O)OCc1ccccc1)C(=O)NC(CCCCNC(=O)C(Cc1ccccc1)NC(=O)OCc1ccccc1)C(=O)O (stereo unspecified); > 100 µM (inactive)
C/C=C1/CN2CC[C@@H]3c4ccccc4N4[C@H](C(=O)OC)[C@H]1C[C@H]2[C@]34/C=C/C1=COC[C@@H]2[C@H]1C[C@H]1c3c(c4ccccc4n3C)C[C@@H]2N1C; 3.89 µM (inactive)

Now look at this one.
For this compound ( S=C(N1CCN(c2ccccc2)CC1)N1CCN(c2ccccc2)CC1 ), measured GI50 is 95.1 µM (inactive)
